Molecular target: EGFR on the surface of human tumour cells (A431, H292) (human, UniProt P00533 25-1210)
Test: cell-based or functional assay
parameter: % inhibition of EGFR phosphorylation at 100 nM binder, cell-based assay (%)

# binder, observed.result
measured = [
    ("E55 (designed binder) 10Fn3 domain: MGVSDVPRDLEVVAATPTSLLISWSVGQVFYQYYRITYGETGGNSPVQEFTVPYDVYTATISGLKPGVDYTITVYAVTDYYNPATHEYKYHQTPISINYRTEIDKPSQ", 99.1),
    ("E47 (designed binder) 10Fn3 domain: MGVSDVPRDLEVVAATPTSLLISWNPASKDYQYYRITYGETGGNSPVQEFTVPGQVPTATISGLKPGVDYTITVYAVTDFYNPATHEYKYDSTPISINYRTEIDKPSQ", 76.9),
    ("E58 (designed binder) 10Fn3 domain: MGVSDVPRDLEVVAATPTSLLISWSAVRWRYQYYRITYGETGGNSPVQEFTVPGGVRTATISGLKPGVDYTITVYAVTDFYNPRTHVYIYDQFPISINYRTEIDKPSQ", 79.7),
    ("E48 (designed binder) 10Fn3 domain: MGVSDVPRDLEVVAATPTSLLISWRSSATAYQYYRITYGETGGNSPVQEFTVPGRVYTATISGLKPGVDYTITVYAVTDFFNWATHEYIYHSTPISINYRTEIDKPSQ", 88.6),
]
